test method notes: Cytotoxicity against HEK293T cells assessed as reduction in cell viability incubated for 24 hrs by CCK-8 assay
Type: toxicity, cell-based, HEK-293T
run parameters: human
quantity measured: CC50 at 24 h

Study these solved cases before continuing.
smiles str: O=C(CSc1[nH]c2ccccc2c1SCC(=O)Nc1ccc(Cl)c(Cl)c1)NCc1cccc(Cl)c1
CC50 at 24 h: > 100 µM

smiles str: COc1ccccc1CNC(=O)CSc1[nH]c2ccccc2c1SCC(=O)Nc1ccc(Cl)c(Cl)c1
CC50 at 24 h: > 100 µM

Would you kindly look at the next entry?
Ask | # CC50 at 24 h lookup, item `O=C(CSc1[nH]c2ccccc2c1SCC(=O)Nc1ccc(Cl)c(Cl)c1)NCc1ccc(Cl)cc1`
Reply | > 100 µM
